Listing of entries alongside the reported ABUTH (Abutilon theophrasti) damage score.
Tested on: a variety of test species
Experiment: Post-emergence herbicidal activity
Type: in vivo
Design: key: 0 = no damage to plant, 5 = total damage to plant
Settings: rate 1000 g/ha, evaluated after 13 days
Description: Seeds of a variety of test species were sown in standard soil in pots. […] After 13 days, the test was evaluated (5=total damage to plant; 0=no damage to plant, NC=not captured).

Guide cases for ABUTH (Abutilon theophrasti) damage score, answers given:
- compound: "CC1=C(Cl)C(O)N(c2cc(C)ccn2)C1=O (stereo not drawn) [AA13]"
  result: 5
- compound: "CCc1cc(N2C(=O)C(C)=C(OC)C2O)ncc1-c1ccccc1OC (stereo not drawn) [AD100]"
  result: 4
- compound: "CCc1cc(N2C(=O)C(C)=C(OC)C2O)ncc1-c1ccc(C)c([N+](=O)[O-])c1 (stereo not drawn) [AD103]"
  result: 4
- compound: "COC1=C(C)C(=O)N(c2nccc(N(C)C)n2)C1O (racemic) [DD2]"
  result: 0
- compound: "COC1=C(Br)C(O)N(c2cc(C(F)(F)F)ccn2)C1=O (stereo not drawn) [AE1]"
  result: 4
- compound: "COC1=C(C)C(=O)N(c2cc(C)c(-c3ccc(OC)cc3)cn2)C1O (stereo not drawn) [AD115]"
  result: 5
- compound: "COC1=C(C)C(=O)N(c2cc(C(F)(F)F)c(-c3ccc(C)c([N+](=O)[O-])c3)cn2)C1O (stereo not drawn) [AD127]"
  result: 2
- compound: "COC1=C(C)C(=O)N(c2cc(C)c(NC(=O)C(C)(C)C)cn2)C1O (stereo not drawn) [AD90]"
  result: 5

In the following, a different compound is considered.
Incoming: What measured ABUTH (Abutilon theophrasti) damage score goes with COC1=C(Br)C(=O)N(c2cc(C(C)(C)C)ncn2)C1O (racemic) [CE1] ?
Outgoing: 4
